Source: patent US8361968B2

molecular target: hOT7T175 (Homo sapiens, UniProt Q969F8, L364H); experiment: Intracellular Ca ion level-increasing activity using FLIPR in hOT7T175/CHO; format: cell-based; parameters: expressed in transfected cells; host or cells: CHO/dhfr- cells, obtained from ATCC; details: relative, Metastin (1-54) = 1
Sequence (Q969F8 whole entry L364H): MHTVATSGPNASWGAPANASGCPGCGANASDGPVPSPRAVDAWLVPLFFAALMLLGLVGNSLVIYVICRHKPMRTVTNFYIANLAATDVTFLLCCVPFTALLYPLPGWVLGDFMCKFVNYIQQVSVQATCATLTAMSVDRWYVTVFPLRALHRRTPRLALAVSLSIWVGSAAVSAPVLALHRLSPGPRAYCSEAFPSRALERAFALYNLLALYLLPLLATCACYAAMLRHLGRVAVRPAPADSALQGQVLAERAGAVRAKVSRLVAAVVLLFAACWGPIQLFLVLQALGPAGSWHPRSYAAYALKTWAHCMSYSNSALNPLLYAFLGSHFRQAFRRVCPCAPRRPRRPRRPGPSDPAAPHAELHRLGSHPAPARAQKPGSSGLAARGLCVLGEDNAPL
Square brackets hold non-standard residues; d marks the D form. Peptide text beside a SMILES is read from it. * marks the point of attachment. Arg(Me) = CNC(=N)NCCC[C@H](N)C(=O)O; Bta = N[C@@H](Cc1csc2ccccc12)C(=O)O; Hydrocinnamoyl = O=C(CCc1ccccc1)*; d3Pal = N[C@H](Cc1cccnc1)C(=O)O; azaGly = NNC(=O)O
# reported Specific Activity (intracellular Ca ion level-increasing activity); entries follow

compound: CNC(=N)NCCC[C@H](NC(=O)[C@H](CC(C)C)NC(=O)NNC(=O)[C@H](Cc1ccccc1)NC(=O)[C@H](CO)NC(=O)[C@H](CC(N)=O)NC(=O)[C@H](C)NC(=O)[C@H](CC(N)=O)NC(=O)[C@H](N)Cc1ccc(O)cc1)C(=O)N[C@@H](Cc1ccccc1)C(N)=O [Compound No. 235] (H-[dY]NANSF[azaGly]L[Arg(Me)]F-NH2)
val: 1
//
compound: CC(C)C[C@H](NC(=O)CNC(=O)[C@H](Cc1ccccc1)NC(=O)[C@H](CO)NC(=O)[C@H](CC(N)=O)NC(=O)[C@H](Cc1c[nH]c2ccccc12)NC(=O)[C@H](CC(N)=O)NC(=O)[C@@H](N)Cc1ccc(O)cc1)C(=O)N[C@@H](CCCNC(=N)N)C(=O)N[C@@H](Cc1csc2ccccc12)C(N)=O [Compound No. 189] (H-YNWNSFGLR[Bta]-NH2; N-terminus assumed)
val: 10
//
compound: CNC(=N)NCCC[C@H](NC(=O)[C@H](CC(C)C)NC(=O)NNC(=O)[C@H](Cc1ccccc1)NC(=O)[C@H](CO)NC(=O)[C@H](CC(N)=O)NC(=O)[C@H](Cc1ccccc1)NC(=O)[C@H](CC(N)=O)NC(=O)[C@H](N)Cc1ccc(O)cc1)C(=O)N[C@@H](Cc1ccccc1)C(N)=O [Compound No. 244] (H-[dY]NFNSF[azaGly]L[Arg(Me)]F-NH2; N-terminus assumed)
val: 1
//
compound: CNC(=N)NCCC[C@H](NC(=O)[C@H](CC(C)C)NC(=O)NNC(=O)[C@H](Cc1ccccc1)NC(=O)[C@H](CO)NC(=O)[C@H](CC(N)=O)NC(=O)[C@H](Cc1ccccc1)NC(=O)[C@H](N)Cc1cccnc1)C(=O)N[C@@H](Cc1ccccc1)C(N)=O [Compound No. 256] (H-[d3Pal]FNSF[azaGly]L[Arg(Me)]F-NH2)
val: 1
//
compound: CNC(=N)NCCC[C@H](NC(=O)[C@H](CC(C)C)NC(=O)NNC(=O)[C@H](Cc1ccccc1)NC(=O)[C@H](CO)NC(=O)[C@H](CC(N)=O)NC(=O)CCc1ccccc1)C(=O)N[C@@H](Cc1ccccc1)C(N)=O [Compound No. 269] (Hydrocinnamoyl-NSF[azaGly]L[Arg(Me)]F-NH2)
val: 3
//
compound: CNC(=N)NCCC[C@H](NC(=O)[C@H](CC(C)C)NC(=O)CNC(=O)[C@H](Cc1ccccc1)NC(=O)[C@H](CO)NC(=O)[C@H](CC(N)=O)NC(=O)[C@H](C)NC(=O)[C@H](CC(N)=O)NC(=O)[C@H](N)Cc1ccc(O)cc1)C(=O)N[C@@H](Cc1ccccc1)C(N)=O [Compound No. 169] (H-[dY]NANSFGL[Arg(Me)]F-NH2)
val: 2

Could you tell me which Specific Activity (intracellular Ca ion level-increasing activity) is on file for CNC(=N)NCCC[C@H](NC(=O)[C@H](CC(C)C)NC(=O)CNC(=O)[C@H](Cc1ccccc1)NC(=O)[C@H](CO)NC(=O)[C@H](CC(N)=O)NC(=O)[C@@H](Cc1c[nH]c2ccccc12)NC(=O)[C@H](CC(N)=O)NC(=O)[C@H](N)Cc1ccc(O)cc1)C(=O)N[C@@H](Cc1ccccc1)C(N)=O [Compound No. 142] ?
2
